# Target Entity: T1, TNFR1 (Homo sapiens, UniProt P19438)
# T1 chain: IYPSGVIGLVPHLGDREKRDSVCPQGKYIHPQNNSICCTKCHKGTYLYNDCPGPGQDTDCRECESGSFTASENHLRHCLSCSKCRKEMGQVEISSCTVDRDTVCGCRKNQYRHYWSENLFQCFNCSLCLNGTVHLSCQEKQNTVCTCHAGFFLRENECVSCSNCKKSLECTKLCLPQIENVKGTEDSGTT
# Test Method Notes: yeast display SC50
Measurement Name: apparent Kd (screen) (pM)

[[record]]
binder = "A90T (designed binder) MTLQELLREEALRRAEAEAFRYALELLAEKFPEQKEYLLDLAEEIESQIRSLSGVDVEDVRKFLDKEWAWVKELLAEHPAELAEVEAARTARLAELRAEVEAKVAA"
measurement_name = "apparent Kd (screen)"
readout_value = 790


(a) L64S (designed binder) MTLQELLREEALRRAEAEAFRYALELLAEKFPEQKEYLLDLAEEIESQIRSLSGVDVEDVRKFSDKEWAWVKELLAEHPAELAEVEAARAARLAELRAEVEAKVAA
(b) A42N (designed binder) MTLQELLREEALRRAEAEAFRYALELLAEKFPEQKEYLLDLNEEIESQIRSLSGVDVEDVRKFLDKEWAWVKELLAEHPAELAEVEAARAARLAELRAEVEAKVAA
(c) E81Y (designed binder) MTLQELLREEALRRAEAEAFRYALELLAEKFPEQKEYLLDLAEEIESQIRSLSGVDVEDVRKFLDKEWAWVKELLAEHPAYLAEVEAARAARLAELRAEVEAKVAA
Could you please order the items by apparent Kd (screen), going from the lowest number to the highest? Enter labels, ranked according to the request.
c, b, a
(c: 446 pM, b: 869 pM, a: 24400 pM)

Data provenance: paper PMC12416549
